- TARGET_OR_SYSTEM: Adenosine A2A receptor (Homo sapiens)
- PROCEDURE_TEXT: Displacement of [3H]ZM241385 from human A2aR/D2R (long isoform) heteromer expressed in mouse Ltk cells by scintillation counting
- Format: cell-based
Activity calls are given as the source filed them. No cut-off for these calls is given here.
MEASURED_ATTRIBUTE: Activity

# MOLECULE, MEASURED_ATTRIBUTE, OBSERVED_MEASUREMENT
records = [
    ("CCCN(CCc1ccc(NC(=O)CCC(N)C(=O)NCCCCC(NC(=O)CCC(=O)NCCOCCOCCNC(=O)CCC(=O)NCCOCCOCCNC(=O)C(CCCCNC(=O)C(N)CCCCNC(=O)COc2ccc(-c3nc4c([nH]3)c(=O)n(CCC)c(=O)n4CCC)cc2)NC(C)=O)C(N)=O)cc1)C1CCc2c(O)cccc2C1 (stereo unspecified)", "Activity", "Active"),
    ("CCCN(CCc1ccc(NC(=O)CCC(N)C(=O)NCCCCC(NC(=O)CCC(=O)NCCOCCOCCNC(=O)CCC(=O)NCCOCCOCCNC(=O)CCC(=O)NCCOCCOCCNC(=O)CCC(=O)NCCOCCOCCNC(=O)CCC(=O)NCCOCCOCCNC(=O)C(CCCCNC(=O)C(N)CCCCNC(=O)COc2ccc(-c3nc4c([nH]3)c(=O)n(CCC)c(=O)n4CCC)cc2)NC(C)=O)C(N)=O)cc1)C1CCc2c(O)cccc2C1 (stereo unspecified)", "Activity", "Active"),
    ("CCCN(CCc1ccc(NC(=O)CCC(N)C(=O)NCCCCC(NC(=O)CCC(=O)NCCOCCOCCNC(=O)C(CCCCNC(=O)C(N)CCCCNC(=O)COc2ccc(-c3nc4c([nH]3)c(=O)n(CCC)c(=O)n4CCC)cc2)NC(C)=O)C(N)=O)cc1)C1CCc2c(O)cccc2C1 (stereo unspecified)", "Activity", "Active"),
    ("CCCn1c(=O)c2[nH]c(-c3ccc(OCC(=O)NCCCCC(N)C(=O)NCCCCC(NC(C)=O)C(=O)NCCOCCOCCNC(=O)CCC(=O)NCCOCCOCCNC(=O)CCC(=O)NCCOCCOCCNC(=O)CCC(=O)NCCOCCOCCNC(=O)CCC(=O)NCCOCCOCCNC(=O)CCC(=O)NCCOCCOCCNC(=O)CCC(=O)NCCOCCOCCNC(=O)CCC(=O)NC(CCCCNC(C)=O)C(N)=O)cc3)nc2n(CCC)c1=O (stereo unspecified)", "Activity", "17%"),
]

Given the entry CCCN(CCc1ccc(NC(=O)CCC(N)C(=O)NCCCCC(NC(=O)CCC(=O)NCCOCCOCCNC(=O)CCC(=O)NCCOCCOCCNC(=O)CCC(=O)NCCOCCOCCNC(=O)CCC(=O)NCCOCCOCCNC(=O)CCC(=O)NCCOCCOCCNC(=O)CCC(=O)NCCOCCOCCNC(=O)C(CCCCNC(=O)C(N)CCCCNC(=O)COc2ccc(-c3nc4c([nH]3)c(=O)n(CCC)c(=O)n4CCC)cc2)NC(C)=O)C(N)=O)cc1)C1CCc2c(O)cccc2C1 (stereo unspecified) , report its measured Activity.
Active

Input CCCN(CCc1ccc(NC(=O)CCC(N)C(=O)NCCCCC(NC(=O)CCC(=O)NCCOCCOCCNC(=O)CCC(=O)NCCOCCOCCNC(=O)CCC(=O)NCCOCCOCCNC(=O)CCC(=O)NCCOCCOCCNC(=O)C(CCCCNC(=O)C(N)CCCCNC(=O)COc2ccc(-c3nc4c([nH]3)c(=O)n(CCC)c(=O)n4CCC)cc2)NC(C)=O)C(N)=O)cc1)C1CCc2c(O)cccc2C1 (stereo unspecified)
Active
